Target: C-domain of mACE (Mus musculus)
Sequence (P09470 35-1312): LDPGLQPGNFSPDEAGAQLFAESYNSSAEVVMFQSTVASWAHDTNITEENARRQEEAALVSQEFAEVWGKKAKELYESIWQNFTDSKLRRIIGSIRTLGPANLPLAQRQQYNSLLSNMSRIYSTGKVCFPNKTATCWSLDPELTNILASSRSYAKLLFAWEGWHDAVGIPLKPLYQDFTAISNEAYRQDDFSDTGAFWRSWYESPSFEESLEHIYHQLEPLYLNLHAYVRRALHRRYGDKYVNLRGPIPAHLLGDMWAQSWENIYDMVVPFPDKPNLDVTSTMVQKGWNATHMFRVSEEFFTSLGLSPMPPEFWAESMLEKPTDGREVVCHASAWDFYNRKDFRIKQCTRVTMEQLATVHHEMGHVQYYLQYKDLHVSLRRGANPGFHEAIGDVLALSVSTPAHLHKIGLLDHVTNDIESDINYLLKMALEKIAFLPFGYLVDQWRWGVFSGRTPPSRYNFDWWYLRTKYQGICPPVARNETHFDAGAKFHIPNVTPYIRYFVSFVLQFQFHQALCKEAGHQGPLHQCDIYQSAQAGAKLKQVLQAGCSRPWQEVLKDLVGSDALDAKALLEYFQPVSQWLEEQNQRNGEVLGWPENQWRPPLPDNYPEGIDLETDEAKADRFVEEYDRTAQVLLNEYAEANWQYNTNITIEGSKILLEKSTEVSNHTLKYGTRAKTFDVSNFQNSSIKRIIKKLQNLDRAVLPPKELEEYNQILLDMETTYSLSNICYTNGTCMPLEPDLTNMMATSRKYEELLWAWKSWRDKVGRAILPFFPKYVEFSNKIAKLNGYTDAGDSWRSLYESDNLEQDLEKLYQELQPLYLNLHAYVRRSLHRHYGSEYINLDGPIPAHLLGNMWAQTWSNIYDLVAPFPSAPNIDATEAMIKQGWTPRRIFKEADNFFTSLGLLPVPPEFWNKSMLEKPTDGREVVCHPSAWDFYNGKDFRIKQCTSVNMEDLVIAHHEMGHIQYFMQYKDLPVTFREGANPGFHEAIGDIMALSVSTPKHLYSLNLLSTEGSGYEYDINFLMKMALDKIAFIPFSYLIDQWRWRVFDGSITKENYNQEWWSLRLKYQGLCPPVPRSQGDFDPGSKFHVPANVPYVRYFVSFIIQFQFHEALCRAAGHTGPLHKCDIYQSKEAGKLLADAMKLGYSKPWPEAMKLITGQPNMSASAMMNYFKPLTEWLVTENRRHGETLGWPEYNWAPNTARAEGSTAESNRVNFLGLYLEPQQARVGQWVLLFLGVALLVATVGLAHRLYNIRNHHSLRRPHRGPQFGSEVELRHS
Assay: ACE C-domain specific enzymatic assay with Abz-LFK
Assay type: biochemical
EXPERIMENTAL_ENDPOINT: pIC50
One number for each entry, as −log10 of the molar value.

{"columns": ["COMPOUND", "pIC50"],
 "data": [
  ["O=C(O)CNC(=O)C(CS)Cc1ccccc1 (centres unmarked) [Thiorphan, thiorphan]", 6.11]
]}

Name the reported pIC50 value associated with the compound O=C(c1ccc(OCCN2CCCCC2)cc1)c1c(-c2ccc(O)cc2)sc2cc(O)ccc12 [Raloxifene, raloxifene] 3.85
